- TESTED_ON: Glutaminyl-peptide cyclotransferase (Homo sapiens, UniProt Q16769)
- Sequence (Q16769 whole entry): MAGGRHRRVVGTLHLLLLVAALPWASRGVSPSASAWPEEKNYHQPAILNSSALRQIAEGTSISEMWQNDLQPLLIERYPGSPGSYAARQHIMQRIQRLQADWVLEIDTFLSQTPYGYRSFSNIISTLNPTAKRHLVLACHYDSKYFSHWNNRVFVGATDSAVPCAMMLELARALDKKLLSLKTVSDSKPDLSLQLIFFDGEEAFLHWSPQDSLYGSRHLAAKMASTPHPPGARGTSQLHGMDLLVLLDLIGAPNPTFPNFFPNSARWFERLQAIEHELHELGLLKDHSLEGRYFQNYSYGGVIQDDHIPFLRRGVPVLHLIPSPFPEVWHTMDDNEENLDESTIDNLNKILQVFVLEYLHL
- MEASUREMENT_NOTES: Inhibition Assay (pH 6)
RECORDED_METRIC: Ki (µM)
Value expressed in µM; do not type the unit.

[in] What is its Ki for Glutaminyl-peptide cyclotransferase (Homo sapiens, UniProt Q16769)? Entry: CS(=O)(=NCc1ccc2[nH]cnc2c1)c1ccc(F)cc1 (stereo unspecified) [US12384772, Compound 1285]
[out] 8.05

Cited source for all entries: BindingDB's records for patent US12384772
